// reported EC50 for each item listed
System: Human immunodeficiency virus 1
Assay: Antiviral activity against HIV1
Assay type: functional, organism-based

{"columns": ["SMILES REPR", "VALUE RELATION SIGN", "EC50 [nM]"],
 "data": [
  ["Cc1ccc(S(=O)(=O)c2c(C(=O)NCCO)[nH]c3ccc(Cl)cc23)cc1", "=", 43],
  ["CCOC(=O)c1[nH]c2ccc(Cl)cc2c1S(=O)(=O)c1ccccc1N", ">", 200000],
  ["Cc1cc(C)cc(S(=O)(=O)c2c(C(N)=O)[nH]c3ccc(Br)cc23)c1", "=", 2],
  ["Cc1ccccc1S(=O)(=O)c1c(C(=O)NNCCO)[nH]c2ccc(Cl)cc12", "=", 50],
  ["CCOC(=O)c1cc2ccccc2n1S(=O)(=O)c1ccccc1[N+](=O)[O-]", "=", 1800]
]}
